# TARGET_SYSTEM: (^3 H)naloxone binding sites
# PROTOCOL_NOTES: wash-resistant binding of (3H)naloxone, rat brain membranes
# EXPERIMENTAL_CONTEXT: preincubated with (3H)naloxone 1 nM and test compound; remaining specific binding after several washings; average of 2-4 data; compound.HCl; read-out: Ki (nM), affinity constants
Lab note: compare Ki with 300 nM, writing TRUE if less and FALSE if equal or more.

COMPOUND | GROUP_LABEL
COc1ccc2c3c1O[C@H]1C(=NNc4ccccc4)CC[C@@]4(O)[C@@H](C2)N(C)CC[C@]314 [Oxycodone-phenylhydrazone] | FALSE
COc1ccc2c3c1O[C@H]1C(=NNc4ccccc4)CC[C@H]4[C@@H](C2)N(C)CC[C@]314 [Dihydrocodeinone-phenylhydrazone] | FALSE
COc1ccc2c3c1O[C@H]1C(=NO)CC[C@H]4[C@@H](C2)N(C)CC[C@]314 [Dihydrocodeinone-oxime, DIHYDROCODEINON-OXIME] | TRUE
COc1ccc2c3c1O[C@H]1C(=NNC(N)=O)CC[C@@]4(O)[C@@H](C2)N(C)CC[C@]314 | FALSE

// query Is it true that Ki reported for COc1ccc2c3c1O[C@H]1C(=NO)CC[C@@]4(O)[C@@H](C2)N(C)CC[C@]314 [Oxycodone-oxime, 14-HYDROXY-DIHYDROCODEINONE-OXIME] is less than 300 nM?
// result TRUE
